# Settings: human, in vivo, sc, 0.3 mg, M1 t1/2, min; max (n 1)
Starred links: 1 amine or outer side, 2 acyl side, 3 side chain; linkers in the order of their positions; H or OH if unused. Positions of bridges follow the written chain, without caps; N, C: chain ends. Non-standard residues stand in square brackets, D forms with d. Residues, ends and D or L forms follow the SMILES beside them. Groups on a side chain read outwards from the residue. *: point of attachment. X1 = CC(=O)NCCCC[C@H](NC(=O)CC[C@H](N)C(N)=O)C(=O)*; εLys = N[C@@H](CCCCN[*:1])C(=O)[*:2]; Dab = NCC[C@H](N)C(=O)O
Reported endpoint: half-life
State the result as a value with its unit after it.

Input: If you can, please state the reported half-life value of CC[C@H](C)[C@@H]1NC(=O)[C@H](Cc2ccccc2)NC(=O)[C@@H](N)CSSC[C@@H](C(=O)N2CCC[C@H]2C(=O)N[C@@H](CCNC(=O)[C@@H](N)CCCCNC(=O)[C@H](CCCCNC(C)=O)NC(=O)CC[C@H](N)C(N)=O)C(=O)NCC(N)=O)NC(=O)[C@H](CC(N)=O)NC(=O)[C@H](CCC(N)=O)NC1=O [Compound M1] (H-CFIQNCP[Dab]([εLys-X1])G-NH2; disulfide 1-6) .
Output: 2.1 h

* * *

# Settings: human, in vivo, sc, 0.3 mg, M1 tmax, min
Starred links: 1 amine or outer side, 2 acyl side, 3 side chain; linkers in the order of their positions; H or OH if unused. Positions of bridges follow the written chain, without caps; N, C: chain ends. Non-standard residues stand in square brackets, D forms with d. Residues, ends and D or L forms follow the SMILES beside them. Groups on a side chain read outwards from the residue. *: point of attachment. X1 = CC(=O)NCCCC[C@H](NC(=O)CC[C@H](N)C(N)=O)C(=O)*; εLys = N[C@@H](CCCCN[*:1])C(=O)[*:2]; Dab = NCC[C@H](N)C(=O)O
Reported endpoint: Tmax (min)
Reply numerically in min, unit not repeated.

Input: If you can, please state the reported Tmax value of CC[C@H](C)[C@@H]1NC(=O)[C@H](Cc2ccccc2)NC(=O)[C@@H](N)CSSC[C@@H](C(=O)N2CCC[C@H]2C(=O)N[C@@H](CCNC(=O)[C@@H](N)CCCCNC(=O)[C@H](CCCCNC(C)=O)NC(=O)CC[C@H](N)C(N)=O)C(=O)NCC(N)=O)NC(=O)[C@H](CC(N)=O)NC(=O)[C@H](CCC(N)=O)NC1=O [Compound M1] (H-CFIQNCP[Dab]([εLys-X1])G-NH2; disulfide 1-6) .
Output: 30

* * *

# Settings: human, in vivo, sc, 0.1 mg, M1 AUC, max
Starred links: 1 amine or outer side, 2 acyl side, 3 side chain; linkers in the order of their positions; H or OH if unused. Positions of bridges follow the written chain, without caps; N, C: chain ends. Non-standard residues stand in square brackets, D forms with d. Residues, ends and D or L forms follow the SMILES beside them. Groups on a side chain read outwards from the residue. *: point of attachment. X1 = CC(=O)NCCCC[C@H](NC(=O)CC[C@H](N)C(N)=O)C(=O)*; εLys = N[C@@H](CCCCN[*:1])C(=O)[*:2]; Dab = NCC[C@H](N)C(=O)O
Reported endpoint: AUC (ng·h/mL)
Reply numerically in ng·h/mL, unit not repeated.

Input: If you can, please state the reported AUC value of CC[C@H](C)[C@@H]1NC(=O)[C@H](Cc2ccccc2)NC(=O)[C@@H](N)CSSC[C@@H](C(=O)N2CCC[C@H]2C(=O)N[C@@H](CCNC(=O)[C@@H](N)CCCCNC(=O)[C@H](CCCCNC(C)=O)NC(=O)CC[C@H](N)C(N)=O)C(=O)NCC(N)=O)NC(=O)[C@H](CC(N)=O)NC(=O)[C@H](CCC(N)=O)NC1=O [Compound M1] (H-CFIQNCP[Dab]([εLys-X1])G-NH2; disulfide 1-6) .
Output: 3.5
